Where these numbers come from: the supplement of paper PMC9170038

# Test system: MS2 coat protein
# experimentalProtocol: apparent KD of MS2 coat protein, switch OFF state (with FMN for OFF switches, without FMN for ON switches); designed switch direction (-1 OFF switch, 1 ON switch): 1; higher = weaker reporter binding
# testConditions: FMN input: 0 or 200 uM; Eterna round: R93 (includes R88 designs)
quantity: apparent KD of MS2 coat protein
Mention the unit after the number when you answer.

>  <constructSequence>
AAGAAACAUGAGGAUCACCCAUGUGAGAUAAACACAGGAUAUGCGAAAAGAAAUAAAGAAGCAGAAGGGUGAAGAA [Mat - Same State 1 - Tesla mod - 71]

>  <quantity>
apparent KD of MS2 coat protein

>  <experimentalResult>
0.0941 µM

$$$$
>  <constructSequence>
AAACCACAUGAGGAUCACCCAUGUAAAAAUAUGGGAGGAUAUACUAGAAGAAACAAAAUAGUAGAAGGCCUAAAAA [75%, Ex sub1, 28]

>  <quantity>
apparent KD of MS2 coat protein

>  <experimentalResult>
0.0781 µM

$$$$

// for each sequence in input: emit apparent KD of MS2 coat protein
1. AAUAUAUUAAGUGAGGAUAUCAUAGGAAAAACAUGAGGAUCACCCAUGUGGGAAACCUGGUCGGGUGAGAAGGUGCUUAAUAUAU [Samwise Clockwise 32 - Jieux - Same State 2]
2. AAAAAACAUGAGGAUCACCCAUGUGCAAAAUUCGCAGGAUAUUCCUCAAUUAAAUGAAAGGAAGAAGGGUGACAAA [Nob's Hobby 30 - Jieux - Same State 1]
3. AGAAAACAUGAGGAUCACCCAUGUAGAAAUAUGGGAGGAUAUACAAAGACGAAAGUCAAAGUAGAAGGCCUAAAGA [Mat - Same State 1 - Eli mod - 33]
4. AUGAAUAGCAUCGAGGAUAUCCAGUCAUGCACAUGAGGAUCACCCAUGUAAGAGAGAGUAUAAUGGGAGAAGGCGAGUACUCGAU [JR_SS002_Sub1704]
5. AAAAAACAUGAGGAUCACCCAUGUCAAAAGACGUGAGGAUAUGUACAGACUUCGGUCUGUACAGAAGGCACGUCAA [SS1 - 1043]
6. AGAAAACAUGAGGAUCACCCAUGUAGAAAUAUGGGAGGAUAUACGAGGACGAAAGUCAAAGUAGAAGGCCUAAAGA [Mat - Same State 1 - Meechl mod - D125]
7. GAAAUACAUGAGGAUCACCCAUGUUAGGUGGGUCAAGGAUAUUAAGGUAAAUAAAAACCUUGAGAAGGUGAAUAAA [JR_SS001_Sub203]
8. AUAAUAUUAAGCUAGGAUAUACUAAAGUAAACAUGAGGAUCACCCAUGUAAAAAAAAAAACUCAUGUAGAAGGAGCAUAAAUAAA [moonwalk 9]

0.235 µM
0.253 µM
0.0719 µM
0.0694 µM
0.0204 µM
0.0712 µM
0.239 µM
0.015 µM

Give one value of apparent KD of MS2 coat protein per listed sequence.
1. GAAAAACAUGAGGAUCACCCAUGUGGAAAUAUGGGAGGAUAUACUAAGACGAAAGUCGAUGUAGAAGGCCUAAAAG [Same State 1.4e (Mat - Mod of Eli - )]
2. AAAAAAAAAUCACAGGAUAUACGAAAAAAAACAUGAGGAUCACCCAUGUGAAAAAAAAAAAAAAAGUAGAAGGGUGAUCCAAAAAA

1. 0.0829 µM
2. 0.00877 µM

###

# Test system: MS2 coat protein
# experimentalProtocol: apparent KD of MS2 coat protein; higher = weaker reporter binding
# testConditions: Eterna round: R107; input ligand: theophylline 2 mM
quantity: apparent KD of MS2 coat protein (nM)
One number for each entry, in nM.

Consider the following illustrative entries.
>  <constructSequence>
AUCGCACCUGGUGAUACCAGCAAUUGCUCGUGACAUGAGGAUCACCCAUGUGGCCAGUGAUGCCCUUGGCAGCAUGGUCGGUGCA [Same State - Theophylline B (Freestyle 25)]

>  <unitTag>
nM

>  <apparent KD of MS2 coat protein>
64.5

$$$$
>  <constructSequence>
UGUCAGCGAAAGUUGACAUGUCUUACCGGUCGAGGACCGGUACGGCCGCCACUCGAUCUCUCGCACAUGAGGAUCACCCAUGUCG [SS Tryp A #17]

>  <unitTag>
nM

>  <apparent KD of MS2 coat protein>
12.8

$$$$
>  <constructSequence>
AAACGACAUGAGGAUCACCCAUGUGCCGAUACCAGCCGGAUAUACGGCCCUUGGCAGCGGAGUAAAUCCGGAGGACAAUGGGUAA [Same State Theophylline A GF6]

>  <unitTag>
nM

>  <apparent KD of MS2 coat protein>
92.4

$$$$
>  <constructSequence>
AGCUGGGAUCCUCAGCGUCAAAGACGCAGUCGAGGACCGGUACGGCCGCCACUCGACACGAGGAUCACCCGUGUCAUUCCCAGCA [TrypAX 1 #SwitchBubble #AlternativeMS2 #MS2Late #CuTurnoff]

>  <unitTag>
nM

>  <apparent KD of MS2 coat protein>
584

$$$$
>  <constructSequence>
UUGUUGUACGGAAGGAGCGUGUAAGAUUAAGAACAUGAGGAUCACCCAUGUUUUAAGGGAACACAGGUAGGUCGCCGUGUGGUGG [11.Q]

>  <unitTag>
nM

>  <apparent KD of MS2 coat protein>
16.4

$$$$
>  <constructSequence>
AGUCUUAAAGGAAGGAGCGCAGUCAUAACAUGAGGAUCACCCAUGUCGAUGUGAGGGUCAUUGCAGGUAGGUCGCCUUACUAAGA [Same State - Arginine B (Freestyle 5)]

>  <unitTag>
nM

>  <apparent KD of MS2 coat protein>
30.2

$$$$

// each listed sequence needs a value for apparent KD of MS2 coat protein
1. GAGACGUCGGGAAGGAGCGCAUCCAAACCACACAUGAGGAUCACCCAUGUAUAAAUAUGCAUGCAGGUAGGUCGCCCGGUGUCCC [Diaxeon]
2. AGUGUUGUCUGAAGGAGCGGCCCUUGAUCCUCAUGAGACAUGAGGAUCACCCAUGUCUCGGGCCAGGUAGGUCGCAGGCAUCACA [Omei Arg B SS v1]

97.8
23.3

Provide apparent KD of MS2 coat protein for all items below, preserving their order.
1. GGUACAUGAGGAUCACCCAUGUAUGCGAGCCGAGGACCGGUACGGCCGCCACUCGCUUAACAUGAGGAUCACCCAUGUUUCUCGG [SSTA DOUBLE!!! :-D #15]
2. UUACAUGAGGAUCACCCAUGUCAUACAGAAGGAGCGUCACAUAAGACAGGUAGGUCGCUGUUAUUUAAUACUAUUAUAUCCUCUA [JR_Nu_ExcArginiA_Sub027]
3. UGUAUGGAAACAUGAGGAUCACCCAUGUGGCGAGGACCGGUACGGCCGCCACUCGAGCAGCAAGCGUGUAUGACGCUGCUGCAUG [SS-trypA-0]
4. AGACUGUCUUCGGACAGUCCGGACAGCCCGCGAGGACCGGUACGGCCGCCACUCGCGUGAGGAUCACCCAUGCGAGGCUGUCCGA [Omei Tryp A Exc A v1]

120
35.2
49.7
46

###

# System: MS2 coat protein
# experimentalProtocol: apparent KD of MS2 coat protein; designed switch direction (-1 OFF switch, 1 ON switch): -1; higher = weaker reporter binding
# testConditions: input ligand: FMN 200 uM
quantity: apparent KD of MS2 coat protein

Below, 2 sequences whose answers are already recorded.
>  <constructSequence>
CUGCUGGAGCUUUGCUUUGGUCGUACAUGAGGAUCACCCAUGUAGGAUAUGGUAGGCUUUGCUUACUAGAAGGAUAGAGUGGUC [salish99_ExNG3_r04_608] (Eterna round: R96, puzzle: Exclusion NG 3)

>  <experimentalResult>
160 nM

$$$$
>  <constructSequence>
GAAGUCGACUAGGAUAUUACAGGCUCAUGCCGUUGAGAAGGAGUGACAUGAGGAUCACCCAUGUCCUCAAGCGC [Eternabot (Original) Solution 48] (Eterna round: R97, puzzle: Exclusion 6)

>  <experimentalResult>
20.3 nM

$$$$

Then this sequence:
Measured apparent KD of MS2 coat protein of AUGCCGCUAGGAUAUUGCAGCUGAUACAUGAGGAUCACCCAUGUGACUCGCUGGGUAGUGUAAGAAGGAGUGUGCU [Eternabot (L2) Solution 27] (Eterna round: R97, puzzle: Exclusion 5) : 21.3 nM

###

Please respond with reported apparent KD of K4 kissing-loop reporter for every item in the list.
# Tested on: K4 kissing-loop RNA reporter;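 further: bound reporter read as fluorescence of individual clusters on recovered sequencing chips by microscopy, with normalized cluster intensities fitted with a binding model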
# experimentalProtocol: apparent KD of K4 kissing-loop reporter; higher = weaker reporter binding
# testConditions: Eterna round: R107; input ligand: theophylline 20 uM
Answers are plain numbers, in nM.

# count of solved cases: 5
>  <constructSequence>
AAUUAAUACAGAAGGAGCGUGAAAUUAUCUAUUUUUUUUUUAGCUAGUGAUGUUAGCAUUUCACAGGUAGGUCGCUGUAUAUUUA [JR_SSArginiB_Sub009]

>  <apparent KD of K4 kissing-loop reporter / nM>
149

$$$$
>  <constructSequence>
GCGGCCCAGCCGGAUACCAGUGACCCGCUGGGAACCGCGGGCCCAGAGUGAUGUUCGGGACACCCUUGGCAGCCGCCUGGGUCGC [#2 Same State - Theophylline B Attempt #18 (HarryS)]

>  <apparent KD of K4 kissing-loop reporter / nM>
684

$$$$
>  <constructSequence>
ACCAUCAAAGAUGGCCAGGACUCCGCUGAUACCAGUGUGAAAACACUCCCUUGGCAGCAGGUGAGUGAUGUUCACAGUCCAUGGA [Omel KL Theo A SS B v3]

>  <apparent KD of K4 kissing-loop reporter / nM>
146

$$$$
>  <constructSequence>
AGUAUGGCAACAUUGCAAGUAGCCGUACCACGAGGACCGGUACGGCCGCCACUCGAUAACUUGCAGUGAUGUUGCAAGUAAGAAU [(T)''-(K)'-(T)'-(T1)-(T2)-(K1)-(K2)_Design4]

>  <apparent KD of K4 kissing-loop reporter / nM>
268

$$$$
>  <constructSequence>
AGGCACGAGCAAGGAUAUUGAGUAGAGUGAUGUUCUGCCUAAGUUGGCUCGUAAGAGCCUUCUUAGCGAGAAGGUGCUCGUGCCU [#2 Same State - FMN A Attempt #27 (HarryS)]

>  <apparent KD of K4 kissing-loop reporter / nM>
611

$$$$

Hi team, please reply with apparent KD of K4 kissing-loop reporter for each item in this list.
1. CGCAGUGAUGUUGCUAUUAUUCUUGAUUAACGAGGACCGGUACGGCCGCCACUCGAUUUCUAUCUUAUUUUGUGUUAUGUUGAUU [JR_ExcTryptoA_Sub008]
2. UGGGAUGGGCGAGGAUAUGGUGAUGUUUGGGUUGUUAGUGAUGUUGGUGAUGCUGGUGGUGUUUGUCCAGAAGGCGCGGUUUUUU [Bdazzled 3]

1. 417
2. 132

The following sequences each have a reported value; give each one's apparent KD of K4 kissing-loop reporter.
1. AAGUGAUGUUGUAGUGAUGUUGUGAUGUUGCAGGAUAUAUAGUGAUGUAGAAGGGUAAGUACUUAUUUUUUUUUUGAGUUAUGUU [crrczrmullin]
2. AUAUUUAUUUAGUCACUUUUCAUAUUAUGUCAGGAUAUCGUAUUUUCGAGAAGGGACUCAUGCUAGUGAUGUUAGCUAUUUCUCA [JR_Nu3_ExcFMNA_Sub022]

45.9
162

Items follow; give apparent KD of K4 kissing-loop reporter for each.
1. AGUUCUUGCCGAAGGAGCGAGGCAGAGUGAUGUUCUGCAAGAGGUCGAAAGACCUCUCUGCCUCAGGUAGGUCGCGGCAUGAACA [Omei KL Arginine B Exc A v3]
2. UCAUGAGAGACGGCCGCCACUGAAGCAGCUCUGUAAGAGCUGCAACAGUAGAGUGAUGUUCUGCGCAGGACCGGGUCGUCAUGAA [KL-SSTryp-B9]
3. UGUCAUUGGUCUGAUACCAGCUGAUCGGAAACGAUCUUGCUGGAGUGAUGUUCCAAGUAAAGCCCUUGGCAGCAGACCGAUGACU [TheoBS 9 #SwitchBubble #StaticStem]
4. GUACCGCGUGCGGCCGCCACUACAUCAAUUACCUAAGCCUAGUGAUGUUGGGUUUUUGCUACAGGUAGGACCGGGCAGAUGUAUG [theeternabot_sameState_KL_Trp_B_38]
5. CUUCGUAAAGGCCCAGUGAUGUUGGGCACUCGAGGACCGGUACGGCCGCCACUCGCUCCCUAAGUCGCGCGCGUGGGCCACCGCC [Xeteoredre]
6. UAUCCUCGCUGAAGGAGCGAGCAUGAAGCAGUGAUGUUCCGAGCGAGUGAUGUUCGCAUAGCUCAGGUAGGUCGCAGUGGGAUUU [Same State Arginie B GF 17]
7. UUUUUCGCGUUUGAUACCAGCAGAGUUGUUCGUGUCUGGAACAUGAGUGAUGUUCAUGUCUGCCCUUGGCAGCAAACGGGAGAAG [KL-XTheo-B13]

356
352
107
263
104
517
87.8

// input: 2 sequences below; output: apparent KD of K4 kissing-loop reporter for each
1. CACGCCUGUUGUCUGGUAGACAGAUCAGAUACCAGACAUAGUGAUGUCCCUUGGCAGCUGAACAUCCAGUGAUGUUGGAUGCGUU [Theo A SS t11]
2. GCGCGUCAUGUCAGCGGUGACACUGUCGAUACCAGUGCCGAAAGGCGCCCUUGGCAGCGACGUGCUGGAGUGAUGUUCCAGCGUU [#2 Exclusion - Theophylline A Attempt #30 (HarryS)]

1: 394; 2: 149

Field: apparent KD of K4 kissing-loop reporter. Fill in for each record below.
1. AACAGCAAUGCGGCCGCCACUUCGAGGUCAGUGAUGUUGACAGAAUUAAAUAAAGAUCCCAAGAGGAGGACCGGGCAGUGCUGUU [whbob_SS_Tryp_B_t24]
2. GCUCAGGAGUGAUGUUCCAAGUGAUGUUAACGAGGACCGGUACGGCCGCCACUCGAUACGGCCGGACCGUAAGAUAAACUAGAGC [Same State - Tryptophan A (Freestyle 8)]
3. AAAUAAAGCAGUCACCCAGUGAUGUUGGAAGGAGCGUGCGAAAGCACAGGUAGGUCGCCAAAACCUAAUACUGGCUGCUAAAUAA [#03 K4 Arginine A Exclusion]

1: 527; 2: 380; 3: 307

The recorded apparent KD of K4 kissing-loop reporter for UAUCUUUGCUGAAGGAGCGAGCAUGUUGGAGUGAUGUUCCGUGCGAGUGAUGUUCGCAUAGCUCAGGUAGGUCGCAGUGGGAGGA [KL-SSArg B29] is 157
